- experiment: Evaluation of pharmacokinetic profile: plasma and brain concentrations after oral dosing
- Assay type: in vivo, Wistar rats
- test.conditions: male, Wistar; rat, 10 mg/kg po, plasma, 1 h post-dosing; read-out: Cpl (ng/mL) at 1 h
Below is a list of entries, each paired with its recorded concentration at 1 h value.
Answer in ng/mL, number only, no unit symbol.

These solved cases illustrate the format of a correct answer.
• Cn1c(CC(=O)N[C@@H]2CCOC2)c2n(c1=S)C[C@H](c1c(F)ccc(Br)c1F)C2 = 1710
• Cl.Fc1cc(F)c(F)c([C@H]2Cc3c(CCN4CCOCC4)[nH]c(=S)n3C2)c1F [Example 199, Hydrochloride] = 1640
• NC(=O)Cc1[nH]c(=S)n2c1[C@@H]1C[C@]1(c1cc(Cl)ccc1F)C2 = 1500

Please find the next compound below.
So what's the measured concentration at 1 h for this one? "O=C(Cc1[nH]c(=S)n2c1[C@@H]1C[C@]1(c1cc(Cl)ccc1F)C2)N1CCOCC1"
779

###

Below is a list of entries, each paired with its recorded Plasma (0.1 μM), activity in % of control value.
- assay.target: Dopamine beta hydroxylase (Homo sapiens, UniProt P09172)
- Construct: 125 μl of plasma; tissue Instituto Português do Sangue Transplantação; host or cells: human plasma from healthy donors
- Sequence (P09172 40-617 limits assumed): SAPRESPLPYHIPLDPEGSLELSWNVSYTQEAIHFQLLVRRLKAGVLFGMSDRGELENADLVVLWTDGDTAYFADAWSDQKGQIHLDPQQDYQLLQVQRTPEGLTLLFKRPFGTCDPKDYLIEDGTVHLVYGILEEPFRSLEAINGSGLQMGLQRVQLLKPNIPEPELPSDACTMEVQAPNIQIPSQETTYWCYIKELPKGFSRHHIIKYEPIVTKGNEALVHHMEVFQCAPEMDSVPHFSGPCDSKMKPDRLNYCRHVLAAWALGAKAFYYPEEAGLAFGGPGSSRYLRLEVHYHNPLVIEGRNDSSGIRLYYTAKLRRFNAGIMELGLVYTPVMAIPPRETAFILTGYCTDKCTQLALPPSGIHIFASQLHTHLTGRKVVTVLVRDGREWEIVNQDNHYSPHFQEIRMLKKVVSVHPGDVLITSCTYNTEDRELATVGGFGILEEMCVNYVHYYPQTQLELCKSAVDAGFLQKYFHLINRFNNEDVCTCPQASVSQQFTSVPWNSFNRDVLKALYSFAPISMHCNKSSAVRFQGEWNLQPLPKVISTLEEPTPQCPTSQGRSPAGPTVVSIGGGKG
- experiment: Dopamine beta hydroxylase activity in human plasma
- Format: biochemical
- test.conditions: inhibitor 0.1 μM
- Procedure: Furthermore, the ability of a compound to inhibit DβH activity may be assessed in human plasma using the following assay. […]. Dopamine beta hydroxylase activity in human plasma was measured by the method of Nagatsu and Udenfriend (Nagatsu, T. and Udenfriend, S. “Photometric assay of dopamine-μ-hydroxylase activity in human blood.” Clin. Chem. 18(9) 980-983, 1972) with minor modifications. […] Absorbance was linear with octopamine concentration from 0.5 to 20 μg/ml. […]

These solved cases illustrate the format of a correct answer.
- CC(C)NC(=O)Cc1[nH]c(=S)n2c1C[C@@H](c1c(F)ccc(Cl)c1F)C2 [Example 88]: 44.1 % of control
- O=C(Cc1[nH]c(=S)n2c1C[C@H](c1c(F)ccc(F)c1F)C2)N[C@H]1CCOC1 [Example 370]: 64.7 % of control
- N#CCNC(=O)Cc1[nH]c(=S)n2c1C[C@H](c1c(F)c(F)cc(F)c1F)C2 [Example 27]: 51.6 % of control
- O=C(CCc1[nH]c(=S)n2c1C[C@H](c1c(F)c(F)cc(F)c1F)C2)N1CCOCC1 [Example 205]: 18.2 % of control
- O=C(Cc1[nH]c(=S)n2c1C[C@H](c1c(F)c(F)cc(F)c1F)C2)NC1CC1 [Example 78]: 77.3 % of control
- Cn1c(CCC(=O)N2CCOCC2)c2n(c1=S)C[C@@H](c1c(F)c(F)cc(F)c1F)C2 [Example 318]: 61.4 % of control
- Cn1c(CC(=O)NC2CCCC2)c2n(c1=S)C[C@@]1(c3cc(Br)ccc3F)C[C@@H]21 [Example 272]: 22.7 % of control
- O=C(O)Cc1[nH]c(=S)n2c1[C@@H]1C[C@]1(c1cc(Br)ccc1F)C2 [Example 361]: 10.4 % of control

So what's the measured Plasma (0.1 μM), activity in % of control for this one? O=C(O)Cc1[nH]c(=S)n2c1[C@@H]1C[C@]1(c1c(F)ccc(Br)c1F)C2 [Example 51]
5.7 % of control

So what's the measured Plasma (0.1 μM), activity in % of control for this one? O=C(Cc1[nH]c(=S)n2c1C[C@H](c1c(F)c(F)cc(F)c1F)C2)NCCO [Example 72]
90.8 % of control

So what's the measured Plasma (0.1 μM), activity in % of control for this one? Cn1c(CC(=O)N2CCC[C@H]2C(F)(F)F)c2n(c1=S)C[C@@H](c1c(F)ccc(F)c1F)C2 [Example 248]
51.8 % of control

So what's the measured Plasma (0.1 μM), activity in % of control for this one? OCCc1[nH]c(=S)n2c1C[C@H](c1c(F)ccc(Br)c1F)C2 [Example 173]
33.1 % of control

So what's the measured Plasma (0.1 μM), activity in % of control for this one? CN(C)C(=O)C1CCN(C(=O)Cc2c3n(c(=S)n2C)C[C@@H](c2c(F)ccc(F)c2F)C3)C1 (stereo partly shown) [Example 358]
24.9 % of control

So what's the measured Plasma (0.1 μM), activity in % of control for this one? O=C(Cc1[nH]c(=S)n2c1C[C@@H](c1c(F)ccc(Br)c1F)C2)N[C@@H]1CCOC1 [Example 90]
9.9 % of control

So what's the measured Plasma (0.1 μM), activity in % of control for this one? CN(C)C(=O)Cc1[nH]c(=S)n2c1[C@@H]1C[C@]1(c1cc(F)cc(Cl)c1)C2 [Example 69]
82.1 % of control

So what's the measured Plasma (0.1 μM), activity in % of control for this one? Cn1c(CC(N)=O)c2n(c1=S)C[C@H](c1c(F)ccc(Br)c1F)C2 [Example 240]
39.2 % of control
